- System: NK-92
- METHOD: drug sensitivity score (viability inhibition); higher = more sensitive
- CONDITION NOTES: 72 h; IL2 2.5 ng/ml
TEST READOUT: drug sensitivity score (DSS)

COMPOUND | TEST READOUT | UNITS SYMBOL | NUMERIC RESULT
CC(=O)c1c(C)c2cnc(Nc3ccc(N4CCNCC4)cn3)nc2n(C2CCCC2)c1=O | drug sensitivity score | DSS | 5.78
CN(Cc1cnc2nc(N)nc(N)c2n1)c1ccc(C(=O)N[C@@H](CCC(=O)O)C(=O)O)cc1 [Methotrexate] | drug sensitivity score | DSS | 12.2
COc1cc(Nc2ncc(F)c(Nc3ccc4c(n3)N(COP(=O)(O)O)C(=O)C(C)(C)O4)n2)cc(OC)c1OC | drug sensitivity score | DSS | 3.43
CN[C@@H]1C[C@H]2O[C@@](C)([C@@H]1OC)n1c3ccccc3c3c4c(c5c6ccccc6n2c5c31)C(=O)N[C@H]4O | drug sensitivity score | DSS | 27.3
COc1cc(Nc2ncc(F)c(Nc3ccc4c(n3)NC(=O)C(C)(C)O4)n2)cc(OC)c1OC | drug sensitivity score | DSS | 5.27
N#CCNC(=O)c1ccc(-c2ccnc(Nc3ccc(N4CCOCC4)cc3)n2)cc1 | drug sensitivity score | DSS | 10.1
O=C(NC[C@H](O)CO)c1ccncc1Nc1ccc(I)cc1F | drug sensitivity score | DSS | 0
CS(=O)(=O)N1CCN(Cc2cc3nc(-c4cccc5[nH]ncc45)nc(N4CCOCC4)c3s2)CC1 | drug sensitivity score | DSS | 7.68
